# Subject of test: PAR2 (HT-29 cells, SLIGKV activation) (Homo sapiens)
# Construct: host or cells: HT-29 cells
# Test description: Ca FLIPR TETRA assay, ANTAGONIST mode, stimulation with 8 μM SLIGKV
# Type: cell-based
# Test conditions: HT-29 cells, antagonist mode, stimulation with 8 μM SLIGKV
pIC50: −log10 of the molar value.
pIC50 of 9 or higher: Condition met. Under 9: Condition not met.

Please review the following examples before continuing.
| Compound | Assigned class |
| --- | --- |
| Cc1nc(C(=O)N2CCN(C(=O)c3cn4nc(-c5ccc(F)cc5)cc(C(C)(C)C)c4n3)C(C)(C)C2)n[nH]1 | Condition met |
| CC(C)c1cc(-c2ccc(F)c(F)c2)nn2cc(C(=O)N3CCN(C(=O)[C@H]4C[C@](O)(C(F)(F)F)C4)CC3(C)C)nc12 | Condition met |
| Cc1nnc(C(=O)N2CCN(C(=O)c3cn4nc(-c5ccc(F)cc5)cc(C(C)C)c4n3)C(C)(C)C2)o1 | Condition not met |
| Cc1cc(-c2cc(C(C)C)c3nc(C(=O)N4CCN(C(=O)c5ccn[nH]5)CC4(C)C)cn3n2)ccc1F | Condition not met |

With those in mind, consider the next compound.
Assess whether reported pIC50 for Cc1cc(C2=Nn3cc(C(=O)N4CCNC(=O)C4(C)C)nc3C(C(C)C)C2)ccc1F (stereo not drawn) sits at 9 or higher.
Condition not met

* * *

# Subject of test: PAR2 (HT-29 cells, SLIGKV activation) (Homo sapiens)
# Construct: host or cells: HT-29 cells
# Test description: Ca FLIPR TETRA assay, ANTAGONIST mode, stimulation with 8 μM SLIGKV
# Format: cell-based
# Test conditions: HT-29 cells, stimulation with 8 μM SLIGKV
Could you please report measured log10(IC50) for the items listed next?
Friendly reminder: values = log10 of IC50, unit nM.

Please review the entries below; each comes with its answer.
| Compound | log10(IC50) |
| --- | --- |
| Cc1cc(-c2ccc(F)cc2)nn2cc(C(=O)N3CCCCCC3)nc12 [Compound I-6] | 3.11 |
| CC(C)c1cc(-c2ccc(F)cc2)nn2cc(C(=O)N3CCN(C(=O)C(O)c4cccnc4)[C@@H](C)C3)nc12 (some centres unmarked) [Compound I-101] | 0.85 |
| COC(=O)[C@@H]1C[C@@H](C)CN(C(=O)c2cn3nc(-c4ccc(F)cc4)cc(C(F)(F)F)c3n2)C1 [Compound I-49] | 2.72 |
| CC(C)(O)C(=O)N1CCN(C(=O)c2cn3nc(-c4ccc(F)cc4)cc(C(F)(F)F)c3n2)C(C)(C)C1 [Compound I-36] | 1.85 |
| CC(C)c1cc(-c2ccc(F)cc2)nn2cc(C(=O)N3CCN(C(=O)CC4CCOC4)[C@@H](C)C3)nc12 (some centres unmarked) [Compound I-145] | 1.86 |

Hi! Can you tell me log10(IC50) for each of these compounds?
1. COc1ccc(CC(=O)N2CCN(C(=O)c3cn4nc(-c5ccc(F)cc5)cc(C(C)C)c4n3)C[C@@H]2C)cc1 [Compound I-133]
2. CC(C)c1cc(-c2ccc(F)cc2)nn2cc(C(=O)N3CCN(C(=O)C4(O)CCOCC4)CC34COC4)nc12 [Compound I-26]
3. CC(C)c1cc(-c2ccc(F)cc2)nn2cc(C(=O)N3CCN(C(=O)OC(C)(C)C)CC34COC4)nc12 [Compound I-23]
4. CC(C)c1cc(-c2ccc(F)cc2)nn2cc(C(=O)N3CCN(C(=O)C4(N)CCCCC4)[C@@H](C)C3)nc12 [Compound I-156]
5. CCc1cc(-c2ccc(F)cc2)nn2cc(C(=O)N3CCN(C(=O)[C@H](O)CC(C)C)[C@@H](C)C3)nc12 [Compound I-169]
6. CC(C)c1cc(C2CCOCC2)nn2cc(C(=O)N3CCN(C(=O)C4(O)CCC4)CC3(C)C)nc12 [Compound I-45]
7. CC(C)c1cc(-c2ccc(F)cc2)nn2cc(C(=O)N3CCN(C(=O)[C@H](O)CC(C)(C)C)CC3(C)C)nc12 [Compound I-103]

1: 0.00; 2: 3.64; 3: 2.11; 4: 3.15; 5: 1.00; 6: 4.30; 7: -0.40

* * *

# Subject of test: PAR2 (HT-29 cells, trypsin activation) (Homo sapiens, UniProt P55085)
# Construct: host or cells: HT-29 cells
# Sequence (P55085 26-397): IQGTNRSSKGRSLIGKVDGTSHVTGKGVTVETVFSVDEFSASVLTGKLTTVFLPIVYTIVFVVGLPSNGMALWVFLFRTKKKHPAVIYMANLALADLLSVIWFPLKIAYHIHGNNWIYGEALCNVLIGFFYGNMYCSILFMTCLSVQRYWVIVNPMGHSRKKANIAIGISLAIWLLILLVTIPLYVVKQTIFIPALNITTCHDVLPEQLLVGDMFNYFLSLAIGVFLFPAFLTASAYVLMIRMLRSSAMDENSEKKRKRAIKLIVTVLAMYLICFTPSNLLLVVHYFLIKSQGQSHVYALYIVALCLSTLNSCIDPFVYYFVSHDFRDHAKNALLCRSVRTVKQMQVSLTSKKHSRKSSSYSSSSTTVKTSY
# Test description: Ca FLIPR TETRA assay, ANTAGONIST mode, stimulation with 3.1 U/mL trypsin
# Type: cell-based
# Test conditions: HT-29 cells, stimulation with 3.1 U/mL trypsin
Provide the reported pIC50 of each item.
Numbers only, as −log10 of the molar value.

Some solved entries appear below for comparison.
| Compound | pIC50 |
| --- | --- |
| C[C@H]1CN(C(=O)c2cn3nc(-c4ccc(F)cc4)cc(C(F)(F)F)c3n2)CCN1C(=O)OCC(C)(C)C | 7.00 |
| CC(C)c1cc(C2CCCCC2)nn2cc(C(=O)N3CCN(C(=O)C4(O)CCC4)CC3(C)C)nc12 | 6.55 |
| CC(C)c1cc(-c2ccc(F)cc2)nn2cc(C(=O)N3CCN(C(=O)CCN4CCCCC4=O)[C@@H](C)C3)nc12 | 6.62 |

# batch size: 2; output pIC50 per entry
1. CCc1cc(-c2ccc(F)cc2)nn2cc(C(=O)N3CCN(C(=O)OC(C)(C)C)[C@@H](C)C3)nc12
2. CCc1cc(-c2ccc(F)cc2)nn2cc(C(=O)N3CCN(C(=O)[C@H](O)CC(C)(C)C)CC3(C)C)nc12

6.08
8.70

# return pIC50 for each item in the list
1. CC(C)c1cc(-c2ccc(F)cc2)nn2cc(C(=O)N3CCN(C(=O)C(O)C(C)C)[C@@H](C)C3)nc12 (stereo partly drawn)
2. O=C(c1cn2nc(-c3ccc(F)cc3)cc(C(F)(F)F)c2n1)N1CCCCC1c1nccs1 (stereo not drawn)
3. CC(O)CC(=O)N1CCN(C(=O)c2cn3nc(-c4ccc(F)cc4)cc(C(C)C)c3n2)C[C@@H]1C (stereo partly drawn)
4. CCC(C)(O)CC(=O)N1CCN(C(=O)c2cn3nc(-c4ccc(F)cc4)cc(C(C)C)c3n2)C[C@@H]1C (stereo partly drawn)
5. CCOCCC(=O)N1CCN(C(=O)c2cn3nc(-c4ccc(F)cc4)cc(C(C)C)c3n2)C[C@@H]1C
6. CC(C)c1cc(-c2ccc(F)cc2)nn2cc(C(=O)N3CCN(C(=O)Cc4cccnc4)[C@@H](C)C3)nc12

1. 7.14
2. 6.04
3. 6.47
4. 6.00
5. 6.54
6. 6.55

# batch size: 7; output pIC50 per entry
1. Cc1cc(-c2ccc(F)cc2)nn2cc(C(=O)N3CCC(C#N)CC3)nc12
2. CC(C)c1cc(-c2ccc(F)cc2)nn2cc(C(=O)N3CCN(C(=O)[C@H](O)C4CCCCC4)[C@@H](C)C3)nc12
3. CCCCC(=O)N1CCN(C(=O)c2cn3nc(-c4ccc(F)cc4)cc(C(C)C)c3n2)C[C@@H]1C
4. CC(C)c1cc(-c2ccc(F)cc2)nn2cc(C(=O)N3CCN(C(=O)C(C)(C)O)[C@@H](C)C3)nc12
5. CCc1cc(-c2ccc(F)cc2)nn2cc(C(=O)N3CCN(C(=O)OC(C)(C)C)CC3(C)C)nc12
6. CCCC(=O)N1CCN(C(=O)c2cn3nc(-c4ccc(F)cc4)cc(C(C)C)c3n2)C[C@@H]1C
7. COCCC(=O)N1CCN(C(=O)c2cn3nc(-c4ccc(F)cc4)cc(C(C)C)c3n2)C[C@@H]1C

1: 4.85; 2: 9.22; 3: 7.21; 4: 6.00; 5: 7.80; 6: 6.80; 7: 6.30

// for each compound below, give its pIC50
1. C=CC(=O)N1CCN(C(=O)c2cn3nc(-c4ccc(F)cc4)cc(C(C)C)c3n2)C(C)(C)C1
2. CC(O)C(=O)N1CCN(C(=O)c2cn3nc(-c4ccc(F)cc4)cc(C(C)C)c3n2)C[C@@H]1C (stereo partly drawn)
3. CC(C)c1cc(-c2ccc(F)cc2)nn2cc(C(=O)N3CCN(C(=O)C4(O)CCC4)C[C@@H]3C)nc12

[7.39, 5.68, 4.82]
